Molecular target: T1, orthogonal hCD122 receptor (hoRb), hCD122 with H133D and Y134F (human, UniProt P14784 27-550); also: reference of the scale not given here
T1 sequence: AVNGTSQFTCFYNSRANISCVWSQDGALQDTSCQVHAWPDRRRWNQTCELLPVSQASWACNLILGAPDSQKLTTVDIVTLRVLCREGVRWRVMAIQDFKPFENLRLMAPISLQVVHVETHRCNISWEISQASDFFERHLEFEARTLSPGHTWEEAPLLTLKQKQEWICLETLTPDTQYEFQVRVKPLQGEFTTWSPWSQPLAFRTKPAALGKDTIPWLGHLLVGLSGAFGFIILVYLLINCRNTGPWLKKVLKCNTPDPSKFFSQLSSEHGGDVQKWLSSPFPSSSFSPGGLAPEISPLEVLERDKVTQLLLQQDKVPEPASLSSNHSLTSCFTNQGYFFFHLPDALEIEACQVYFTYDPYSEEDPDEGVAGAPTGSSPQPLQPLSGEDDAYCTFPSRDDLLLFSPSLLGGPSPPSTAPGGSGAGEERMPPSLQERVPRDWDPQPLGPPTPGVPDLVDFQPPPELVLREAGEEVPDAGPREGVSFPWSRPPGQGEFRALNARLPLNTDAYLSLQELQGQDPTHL
Experiment: cell-based or functional assay
REPORTED_ENDPOINT: Relative Proliferation Fold Change NKL 1:2 (fold)

These recorded examples may help you get a feel for the data.
Q126R, SQVLKA (ligand) APTSSSTKKTQLQLSQLLVLLKAILNGINNYKNPKLTRMLTFKFYMPKKATELKHLQCLEEELKPLEEVLNLAQSKNFHLRPRDLISNINVIVLELKGSETTFMCEYADETATIVEFLNRWITFCRSIISTLT :: 1.18
G27K, SQVLKA (ligand) APTSSSTKKTQLQLSQLLVLLKAILNKINNYKNPKLTRMLTFKFYMPKKATELKHLQCLEEELKPLEEVLNLAQSKNFHLRPRDLISNINVIVLELKGSETTFMCEYADETATIVEFLNRWITFCQSIISTLT :: 2.93

1: Q126C, SQVLKA (ligand) APTSSSTKKTQLQLSQLLVLLKAILNGINNYKNPKLTRMLTFKFYMPKKATELKHLQCLEEELKPLEEVLNLAQSKNFHLRPRDLISNINVIVLELKGSETTFMCEYADETATIVEFLNRWITFCCSIISTLT
2: L18I, SQVLKA (ligand) APTSSSTKKTQLQLSQLIVLLKAILNGINNYKNPKLTRMLTFKFYMPKKATELKHLQCLEEELKPLEEVLNLAQSKNFHLRPRDLISNINVIVLELKGSETTFMCEYADETATIVEFLNRWITFCQSIISTLT
Hello, I am sorting some records. Could you say if 1 or 2 has the smaller Relative Proliferation Fold Change NKL 1:2 value? Give the label under which the chosen entry appears.
1
(1: 0.44 fold, 2: 2.05 fold)

Data credit: patent US20210196796A1
